target: Human STING (Homo sapiens, UniProt Q86WV6, G230A/H232R/R293Q/R71H)
Construct: host or cells: THP1-Dual cells (human monocytic reporter line)
Sequence (Q86WV6 whole entry R71H/G230A/H232R/R293Q): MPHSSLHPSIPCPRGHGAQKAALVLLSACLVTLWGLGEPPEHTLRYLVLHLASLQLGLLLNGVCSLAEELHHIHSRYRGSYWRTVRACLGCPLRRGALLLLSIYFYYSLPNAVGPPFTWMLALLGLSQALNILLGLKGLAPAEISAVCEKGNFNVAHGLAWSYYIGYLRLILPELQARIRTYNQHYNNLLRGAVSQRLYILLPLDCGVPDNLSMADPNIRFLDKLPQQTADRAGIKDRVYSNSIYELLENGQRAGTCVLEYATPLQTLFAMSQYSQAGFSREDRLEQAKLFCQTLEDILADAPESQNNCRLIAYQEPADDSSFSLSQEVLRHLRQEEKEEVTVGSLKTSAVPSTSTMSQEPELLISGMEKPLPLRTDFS
test.description: EC50 in THP1-Dual cells, IRF3 reporter (QUANTI-Luc)
Assay type: cell-based
measurement.setup: THP1 cell line, 24 h
measurement.type: pEC50
Reminder that pEC50 means the negative base-10 logarithm of the concentration expressed in mol/L.

Observe how each entry below is paired with its result.
[
  {
    "molecule": "BP1(=O)OC[C@H]2O[C@@H](n3cnc4c(=O)[nH]c(N)nc43)[C@H](F)[C@@H]2OP(=O)(S)OCC2O[C@@H](n3cnc4c(N)ncnc43)[C@H](F)[C@@H]2O1 (single isomer, unassigned) [Compound B3]",
    "numeric.value": 6.04
  },
  {
    "molecule": "[BH3-][P+]1(O)OCC2OC(n3cnc4c(N)ncnc43)C(OP(=O)(O)OCC3OC(n4cnc5c(N)ncnc54)C(F)C3O1)C2F (single isomer, unassigned) [Compound K2]",
    "numeric.value": 4.64
  },
  {
    "molecule": "B[P@]1(=O)OC[C@H]2O[C@@H](n3cnc4c(N)ncnc43)[C@H](F)[C@@H]2OP(=O)(O)OC[C@H]2O[C@@H](n3cnc4c(N)ncnc43)[C@H](O1)C2F (some centres unmarked) [Compound I1]",
    "numeric.value": 4.86
  }
]

Query :: State its pEC50 on Human STING (Homo sapiens, UniProt Q86WV6, G230A/H232R/R293Q/R71H): BP1(=O)OC[C@H]2O[C@@H](n3cnc4c(=O)[nH]c(N)nc43)[C@H](F)[C@@H]2OP(=O)(S)OCC2O[C@@H](n3cnc4c(N)ncnc43)[C@H](F)[C@@H]2O1 (single isomer, unassigned) [Compound B4]
Result :: 6.21

Query :: Lookup BP1(=O)OC[C@H]2O[C@@H](n3cnc4c(=O)[nH]c(N)nc43)[C@H](F)[C@@H]2OP(=O)(S)OCC2O[C@@H](n3cnc4c(N)ncnc43)[C@H](F)[C@@H]2O1 (single isomer, unassigned) [Compound B1]
Result :: 4.55

###

target: hSTING R232 (Homo sapiens, UniProt Q86WV6, H232R)
Construct: host or cells: 293T-Dual hSTING R232 cells
Sequence (Q86WV6 whole entry H232R): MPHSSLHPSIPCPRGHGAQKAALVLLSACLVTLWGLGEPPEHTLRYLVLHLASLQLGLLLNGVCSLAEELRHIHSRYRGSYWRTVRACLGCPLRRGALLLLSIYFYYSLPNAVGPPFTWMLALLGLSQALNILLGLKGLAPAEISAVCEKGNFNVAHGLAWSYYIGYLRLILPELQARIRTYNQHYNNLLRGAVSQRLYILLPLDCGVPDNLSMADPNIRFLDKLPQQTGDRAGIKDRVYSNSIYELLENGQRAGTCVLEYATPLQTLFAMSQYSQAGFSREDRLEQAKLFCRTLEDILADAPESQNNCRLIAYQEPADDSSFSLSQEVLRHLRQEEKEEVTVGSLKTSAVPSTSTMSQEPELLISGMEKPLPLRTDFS
test.description: 293T-Dual hSTING R232 cells, IRF activation (Quanti-Blue)
Format: cell-based
measurement.setup: 293T-Dual hSTING R232 cell line, 24 h, OD 620 nm
measurement.type: EC50 (µM)
Give your result in µM as a bare value.

Query :: Given the molecule [BH3-][P+]1(O)OCC2OC(n3cnc4c(N)ncnc43)C(OP(=O)(O)OCC3OC(n4cnc5c(N)ncnc54)C(F)C3O1)C2F (single isomer, unassigned) [Compound K2] , what is its reported EC50?
Result :: 15

Query :: Further, for BP1(=O)OC[C@H]2O[C@@H](n3cnc4c(=O)[nH]c(N)nc43)[C@H](F)[C@@H]2OP(=O)(O)OCC2O[C@@H](n3cnc4c(N)ncnc43)[C@H](F)[C@@H]2O1 (some centres unmarked) [Compound G2] ?
Result :: 0.94

Query :: Okay, and B[P@]1(=O)OC[C@H]2O[C@@H](n3cnc4c(N)ncnc43)[C@H](F)[C@@H]2OP(=O)(O)OC[C@H]2O[C@@H](n3cnc4c(N)ncnc43)[C@H](O1)C2F (some centres unmarked) [Compound I1] ?
Result :: 9.68

Query :: Same thing, different molecule: BP1(=O)OC[C@H]2O[C@@H](n3cnc4c(=O)[nH]c(N)nc43)[C@H](F)[C@@H]2OP(=O)(S)OCC2O[C@@H](n3cnc4c(N)ncnc43)[C@H](F)[C@@H]2O1 (single isomer, unassigned) [Compound B1]
Result :: 11.8

Query :: Check BP1(=O)OC[C@H]2O[C@@H](n3cnc4c(=O)[nH]c(N)nc43)[C@H](F)[C@@H]2OP(=O)(S)OCC2O[C@@H](n3cnc4c(N)ncnc43)[C@H](F)[C@@H]2O1 (single isomer, unassigned) [Compound B3] too.
Result :: 0.32

###

Entries and their Readout n = 1
target: Human STING (Homo sapiens, UniProt Q86WV6, G230A/H232R/R293Q/R71H)
Construct: host or cells: THP1-Dual cells (human monocytic reporter line)
test.description: THP1-Dual cell assay, IRF pathway reporter luminescence readout (QUANTI-Luc)
Format: cell-based
measurement.setup: THP1-Dual cells, 24 h, 30 μM, Table 2
# answer = number (no unit)

Examples with their reported Readout n = 1 follow.
[
  {
    "compound": "BP1(=O)OC[C@H]2O[C@@H](n3cnc4c(NCc5ccccc5)ncnc43)[C@H](OP(=O)(S)OC[C@H]3O[C@@H](n4cnc5c(NCc6ccccc6)ncnc54)[C@H](O)[C@@H]3O1)[C@@H]2O (single isomer, unassigned) [Compound D4]",
    "Readout n = 1": 534040
  },
  {
    "compound": "BP1(=O)OC[C@H]2O[C@@H](n3cnc4c(NCc5ccccc5)ncnc43)[C@H](OP(=O)(S)OC[C@H]3O[C@@H](n4cnc5c(NCc6ccccc6)ncnc54)[C@H](O)[C@@H]3O1)[C@@H]2O (single isomer, unassigned) [Compound D3]",
    "Readout n = 1": 289010
  },
  {
    "compound": "BP1(=O)OC[C@H]2O[C@@H](n3cnc4c(NCc5ccccc5)ncnc43)[C@H](OP(=O)(S)OC[C@H]3O[C@@H](n4cnc5c(NCc6ccccc6)ncnc54)[C@H](O)[C@@H]3O1)[C@@H]2O (single isomer, unassigned) [Compound D1]",
    "Readout n = 1": 22420
  }
]

// next entry
Query :: Fill in: Readout n = 1 of BP1(=O)OC[C@H]2O[C@@H](n3cnc4c(NCc5ccccc5)ncnc43)[C@H](OP(=O)(S)OC[C@H]3O[C@@H](n4cnc5c(NCc6ccccc6)ncnc54)[C@H](O)[C@@H]3O1)[C@@H]2O (single isomer, unassigned) [Compound D2] is ___
Result :: 18350

###

Entries annotated with measured EC50
target: Human STING (Homo sapiens, UniProt Q86WV6, G230A/H232R/R293Q/R71H)
Construct: host or cells: THP1-Dual cells (human monocytic reporter line)
test.description: EC50 in THP1-Dual cells, NF-kB reporter (QUANTI-Blue)
Format: cell-based
measurement.setup: THP1 cell line, 24 h, OD620, read-out: ECs50 NF-kB
Could you give me the number in µM? Just the number is fine.

Below, 3 molecules whose answers are already recorded.
[
  {
    "molecule": "B[P@]1(=O)OC[C@H]2O[C@@H](n3cnc4c(N)ncnc43)[C@H](F)[C@@H]2OP(=O)(O)OC[C@H]2O[C@@H](n3cnc4c(N)ncnc43)[C@H](O1)C2F (some centres unmarked) [Compound I2]",
    "target": "Human STING (Homo sapiens, UniProt Q86WV6, G230A/H232R/R293Q/R71H)",
    "EC50 (µM)": 34.7
  },
  {
    "molecule": "BP1(=O)OC[C@H]2O[C@@H](n3cnc4c(=O)[nH]c(N)nc43)[C@H](F)[C@@H]2OP(=O)(S)OCC2O[C@@H](n3cnc4c(N)ncnc43)[C@H](F)[C@@H]2O1 (single isomer, unassigned) [Compound B3]",
    "target": "Human STING (Homo sapiens, UniProt Q86WV6, G230A/H232R/R293Q/R71H)",
    "EC50 (µM)": 5.22
  },
  {
    "molecule": "BP1(=O)OC[C@H]2O[C@@H](n3cnc4c(=O)[nH]c(N)nc43)[C@H](F)[C@@H]2OP(=O)(S)OCC2O[C@@H](n3cnc4c(N)ncnc43)[C@H](F)[C@@H]2O1 (single isomer, unassigned) [Compound B2]",
    "target": "Human STING (Homo sapiens, UniProt Q86WV6, G230A/H232R/R293Q/R71H)",
    "EC50 (µM)": 74.6
  }
]

Consider the record given below.
Query :: Requested read-out: EC50. Entry: BP1(=O)OCC2O[C@@H](n3cnc4c(N)ncnc43)[C@H](F)[C@@H]2OP(=O)(O)OC[C@H]2O[C@@H](n3cnc4c(=O)[nH]c(N)nc43)[C@H](F)[C@@H]2O1 (some centres unmarked) [Compound F2]
Result :: 10

###

# pEC50 annotations
target: Human STING (Homo sapiens, UniProt Q86WV6, G230A/H232R/R293Q/R71H)
Construct: host or cells: THP1-Dual cells (human monocytic reporter line)
test.description: EC50 in THP1-Dual cells, NF-kB reporter (QUANTI-Blue)
Assay type: cell-based
measurement.setup: THP1 cell line, 24 h, OD620, read-out: ECs50 NF-kB
Give only the number. pEC50 is defined as minus log10 of concentration in molar units.

[
  {
    "molecule": "BP1(=O)OC[C@H]2O[C@@H](n3cnc4c(=O)[nH]c(N)nc43)[C@H](F)[C@@H]2OP(=O)(S)OCC2O[C@@H](n3cnc4c(N)ncnc43)[C@H](F)[C@@H]2O1 (single isomer, unassigned) [Compound B4]",
    "pEC50": 5.12
  },
  {
    "molecule": "BP1(=O)OCC2O[C@@H](n3cnc4c(N)ncnc43)[C@H](F)[C@@H]2OP(=O)(S)OC[C@H]2O[C@@H](n3cnc4c(=O)[nH]c(N)nc43)[C@H](F)[C@@H]2O1 (single isomer, unassigned) [Compound C1]",
    "pEC50": 4.17
  },
  {
    "molecule": "BP1(=O)OCC2O[C@@H](n3cnc4c(N)ncnc43)[C@H](F)[C@@H]2OP(=O)(S)OC[C@H]2O[C@@H](n3cnc4c(=O)[nH]c(N)nc43)[C@H](F)[C@@H]2O1 (single isomer, unassigned) [Compound C3]",
    "pEC50": 5.34
  }
]

Please find the next molecule below.
Query :: Notebook entry, Human STING (Homo sapiens, UniProt Q86WV6, G230A/H232R/R293Q/R71H) assay: pEC50 of BP1(=O)OCC2O[C@@H](n3cnc4c(N)ncnc43)[C@H](F)[C@@H]2OP(=O)(O)OC[C@H]2O[C@@H](n3cnc4c(=O)[nH]c(N)nc43)[C@H](F)[C@@H]2O1 (stereo partly shown) [Compound F1] = ?
Result :: 5.18
